TGI by entry:
system: SNB-75 CNS; assay: NCI tumour cell line growth inhibition, 48 h

compound: O=C1C(Cl)=C(Nc2ccc3c(c2NC2=C(Cl)C(=O)c4ccccc4C2=O)C(=O)c2ccccc2C3=O)C(=O)c2ccccc21
censor.symbol: =
TGI (µM): 13.9
--
compound: CC(C(O)c1ccccc1)[N+](=O)[O-] (stereo not given)
censor.symbol: >
TGI (µM): 100
--
compound: ClC1=C(Cl)C(Cl)=C(Cl)C1=Cc1ccc(Cl)cc1Cl
censor.symbol: =
TGI (µM): 5.51
--
compound: CCC(=O)n1c(=O)n(-c2ccc([N+](=O)[O-])cc2)c(=O)n1C(=O)CC
censor.symbol: >
TGI (µM): 100
--
compound: CCN(CC)CCNC(=O)c1cc2cc(NC(=O)c3cc4cc(NC(=O)c5cc6cc([N+](=O)[O-])ccc6[nH]5)ccc4[nH]3)ccc2[nH]1
censor.symbol: >
TGI (µM): 100
